Each entry below carries its measured MIC, system: Streptococcus Pneumonia 5979.
Your answer is read as µg/mL, so omit the unit and give the number.

Observe how each entry below is paired with its result.
# COMPOUND_STRING, MIC, µg/mL
records = [
    ("CC[C@H]1OC(=O)[C@H](C)C(=O)[C@H](C)[C@@H](O[C@@H]2O[C@H](C)C[C@H](N(C)C)[C@H]2O)[C@](C)(OCC#Cc2ccc(-c3cncnc3)s2)C[C@@H](C)C(=O)[C@H](C)[C@H]2NC(=O)O[C@@]21C", 2),
    ("CC[C@H]1OC(=O)[C@H](C)C(=O)[C@H](C)[C@@H](O[C@@H]2O[C@H](C)C[C@H](N(C)C)[C@H]2O)[C@](C)(OCC#Cc2ccc(-c3cnc4ccccc4n3)s2)C[C@@H](C)C(=O)[C@H](C)[C@H]2NC(=O)O[C@@]21C", 0.25),
    ("CC[C@H]1OC(=O)[C@H](C)C(=O)[C@H](C)[C@@H](O[C@@H]2O[C@H](C)C[C@H](N(C)C)[C@H]2O)[C@](C)(OCC#Cc2ccc(-c3nccs3)s2)C[C@@H](C)C(=O)[C@H](C)[C@H]2NC(=O)O[C@@]21C", 1),
    ("CC[C@H]1OC(=O)[C@H](C)C(=O)[C@H](C)[C@@H](O[C@@H]2O[C@H](C)C[C@H](N(C)C)[C@H]2O)[C@](C)(OCC#Cc2ccc(-c3cccs3)s2)C[C@@H](C)C(=O)[C@H](C)[C@H]2NC(=O)O[C@@]21C", 0.25),
]

Ask: Look up and report measured MIC for this entry: CC[C@H]1OC(=O)[C@H](C)C(=O)[C@H](C)[C@@H](O[C@@H]2O[C@H](C)C[C@H](N(C)C)[C@H]2O)[C@](C)(OCC#Cc2ccc(-c3nccn3C)s2)C[C@@H](C)C(=O)[C@H](C)[C@H]2NC(=O)O[C@@]21C
Reply: 0.25

Ask: Look up and report measured MIC for this entry: CC[C@H]1OC(=O)[C@H](C)C(=O)[C@H](C)[C@@H](O[C@@H]2O[C@H](C)C[C@H](N(C)C)[C@H]2O)[C@](C)(OCC#Cc2ccc(-c3cccc(C(F)(F)F)c3)s2)C[C@@H](C)C(=O)[C@H](C)[C@H]2NC(=O)O[C@@]21C
Reply: 4

Ask: Look up and report measured MIC for this entry: CC[C@H]1OC(=O)[C@H](C)C(=O)[C@H](C)[C@@H](O[C@@H]2O[C@H](C)C[C@H](N(C)C)[C@H]2O)[C@](C)(OC/C=C/c2ccc(-c3ccco3)s2)C[C@@H](C)C(=O)[C@H](C)[C@H]2NC(=O)O[C@@]21C
Reply: 16

All figures here come from patent US6054435A.
